# Test system: Phytophthora infestans
# Experimental protocol: whole plant or invertebrate
# Format: in vivo
# Protocol conditions: tomato late blight; spray the day before inoculation; compounds without asterisk (not 40 or 10 ppm)
Test C disease rating (100 = 100% disease control, 0 = no disease control) values by entry
Respond with the bare value in %.

Examples from the recorded data:
Compound	Target entity	Units text	Experimental result
C[C@H](c1ccccc1)N(C)C(=O)c1csc(C2CCN(C(=O)Cc3ccc(F)c(Cl)c3)CC2)n1 [compound 35]	Phytophthora infestans	%	93
C[C@H](c1ccccc1)N(C)C(=O)c1csc(C2CCN(C(=O)Cc3cc(C(C)(C)C)no3)CC2)n1 [compound 93]	Phytophthora infestans	%	26
COCC(c1ccccc1)N(C)C(=O)c1csc(C2CCN(C(=O)Cc3cc(C)ccc3C)CC2)n1 (stereo not shown) [compound 109]	Phytophthora infestans	%	99

Incoming: What is its Test C disease rating (100 = 100% disease control, 0 = no disease control) for Phytophthora infestans? Entry: Cc1ccc(C)c(CC(=O)N2CCC(c3nc(C(=O)N(C)C4CCCCC4)cs3)CC2)c1 [compound 174]
Outgoing: 100

---

Quick list: Test A disease rating (100 = 100% disease control, 0 = no disease control) per entry.
# System: Pseudoperonospora cubensis
# Experimental protocol: Test A: cucumber downy mildew, spray the day before inoculation (disease rating, 100 = 100% disease control)
# Type: in vivo
# Protocol conditions: spray the day before inoculation, compounds without asterisk (not 40 or 10 ppm)
Kindly provide the numeric value in % only, without the unit symbol.

Compound	Target entity	Experimental result
C[C@H](c1ccccc1)N(C)C(=O)c1csc(C2CCN(C(=O)Cc3cc(C(F)(F)F)ccc3Cl)CC2)n1 [compound 39]	Pseudoperonospora cubensis	100
COc1ccccc1CC(=O)N1CCC(c2nc(C(=O)N(C)[C@H](C)c3ccccc3)cs2)CC1 [compound 41]	Pseudoperonospora cubensis	100
C[C@H](c1ccccc1)N(C)C(=O)c1csc(C2CCN(C(=O)Cc3ccccc3OC(F)(F)F)CC2)n1 [compound 45]	Pseudoperonospora cubensis	95

Incoming: Quick one: Test A disease rating (100 = 100% disease control, 0 = no disease control) of C[C@H](c1ccccc1)N(C)C(=O)c1csc(C2CCN(C(=O)Nc3cccc(C(F)(F)F)c3)CC2)n1 [compound 155] ?
Outgoing: 100

---

# Test system: Erysiphe graminis f. sp. tritici
# Experimental protocol: Test E: wheat powdery mildew, spray the day before inoculation (disease rating, 100 = 100% disease control)
# Assay type: in vivo
# Protocol conditions: sprayed the day before inoculation, 7 days at 20° C., unmarked compounds (no asterisk, not 40 or 10 ppm)
Reported values of Test E disease rating (100 = 100% disease control, 0 = no disease control) for individual entries
Kindly provide the number alone.

For orientation, consider the following solved cases.
Molecule	Experimental result
Cc1cc(C(F)(F)F)nn1CC(=O)N1CCC(c2nc(C(=O)N3CCCC3c3ccc(Cl)cc3)cs2)CC1 (stereo not drawn) [compound 290]	0
C[C@@H](NC(=O)c1csc(C2CCN(C(=O)Cc3cccc(Br)c3)CC2)n1)c1ccccc1C(F)(F)F [compound 275]	0
C[C@@H](NC(=O)c1csc(C2CCN(C(=O)Cc3cccc(Br)c3)CC2)n1)C1CCCCC1 [compound 272]	0

Consider the additional molecule presented here.
Incoming: Query: Test E disease rating (100 = 100% disease control, 0 = no disease control); subject: Cc1cc(C(F)(F)F)nn1CC(=O)N1CCC(c2nc(C(=O)N3CCCC(C)C3)cs2)CC1 (stereo not drawn) [compound 312]
Outgoing: 0

---

# Tested on: Phytophthora infestans
# Experimental protocol: whole plant or invertebrate
# Format: in vivo
# Protocol conditions: tomato late blight; spray 17 h after inoculation; compounds without asterisk (not 40 or 10 ppm)
Measured property: Test D disease rating (100 = 100% disease control, 0 = no disease control) (%)
Reply numerically in %, unit not repeated.

Solved entries:
Compound	Units text	Experimental result
Cc1cccc(CC(=O)N2CCN(c3nc(C(=O)N(C)[C@H](C)c4ccccc4)co3)CC2)c1	%	74
CN(Cc1ccccn1)C(=O)c1csc(C2CCN(C(=O)Cc3cccc(C(F)(F)F)c3)CC2)n1	%	0
Cc1ccc(C)c(CC(=O)N2CCC(c3nc(C(=O)N(C)C4CCCCC4)cs3)CC2)c1	%	63
CC[C@H](c1ccccc1)N(C)C(=O)c1csc(C2CCN(C(=O)Cn3nc(C)cc3C)CC2)n1	%	99
CN(Cc1ccncc1)C(=O)c1csc(C2CCN(C(=O)Cc3cccc(C(F)(F)F)c3)CC2)n1	%	0
CN(C(=O)c1csc(C2CCN(C(=O)Cc3cccc(Cl)n3)CC2)n1)[C@@H]1CCCc2ccccc21	%	99

// below: Test D disease rating (100 = 100% disease control, 0 = no disease control) requested for another compound
Incoming: Request body: readout Test D disease rating (100 = 100% disease control, 0 = no disease control), system Phytophthora infestans, query Cc1ccc(C)c(CC(=O)N2CCC(c3nc(C(=O)N(C)C4CCCC(C)C4)cs3)CC2)c1 (stereo not shown) . Return the value.
Outgoing: 24

---

# Tested on: Phytophthora infestans
# Experimental protocol: whole plant or invertebrate
# Format: in vivo
# Protocol conditions: tomato late blight; spray the day before inoculation; compounds without asterisk (not 40 or 10 ppm)
// Test C disease rating (100 = 100% disease control, 0 = no disease control) lookup, one value per entry

// known answers, use as guide
Compound	Target entity	Experimental result
CC(C)c1nccn1CC(=O)N1CCC(c2nc(C(=O)N(C)[C@H](C)c3ccccc3)cs2)CC1	Phytophthora infestans	0%
C[C@H](c1ccccc1)N(C)C(=O)c1csc(C2CCN(C(=O)Cc3cc(F)ccc3F)CC2)n1	Phytophthora infestans	98%
Cc1cc(C(F)(F)F)nn1CC(=O)N1CCCN(c2nc(C(=O)N(C)[C@@H]3CCCc4ccccc43)cs2)CC1.Cl	Phytophthora infestans	100%
CC(c1cccnc1)N(C)C(=O)c1csc(C2CCN(C(=O)Cc3cccc(C(F)(F)F)c3)CC2)n1 (stereo not shown)	Phytophthora infestans	54%
Cc1cc(C(F)(F)F)nn1CC(=O)N1CCC(c2nc(C(=O)N(C)C3CCC(C)c4ccccc43)cs2)CC1 (mixture of isomers)	Phytophthora infestans	100%

Incoming: Query (compound): Cc1cccc(CC(=O)N2CCN(c3nc(C(=O)N(C)[C@H](C)c4ccccc4)co3)CC2)c1 ; field requested: Test C disease rating (100 = 100% disease control, 0 = no disease control)
Outgoing: 100%

Incoming: // same read-out, input: COc1ccc(C)cc1CC(=O)N1CCC(c2nc(C(=O)N(C)[C@H](C)c3ccccc3)cs2)CC1
Outgoing: 100%

---

# Test system: Phytophthora infestans
# Experimental protocol: whole plant or invertebrate
# Assay type: in vivo
# Protocol conditions: tomato late blight; spray the day before inoculation; compounds without asterisk (not 40 or 10 ppm)
Measured property: Test C disease rating (100 = 100% disease control, 0 = no disease control) (%)
Give just the number in %; leave the unit off.

Previously resolved entries follow.
Compound	Target entity	Experimental result
Cc1ccc(C)c(CC(=O)N2CCC(c3nc(C(=O)N(C)C4CCCc5ccccc54)cs3)CC2)c1 (stereo not drawn) [compound 99]	Phytophthora infestans	100
COc1cccc([C@@H](C)N(C)C(=O)c2csc(C3CCN(C(=O)Cc4cc(C)ccc4C)CC3)n2)c1 [compound 69]	Phytophthora infestans	100
C[C@H](c1ccccc1)N(C)C(=O)c1coc(N2CCN(C(=O)Cc3cccc(Br)c3)CC2)n1 [compound 54]	Phytophthora infestans	100

Incoming: Can you look up the measured Test C disease rating (100 = 100% disease control, 0 = no disease control) of Cc1ccc(C(F)(F)F)cc1CC(=O)N1CCC(c2nc(C(=O)N(C)[C@H](C)c3ccccc3)cs2)CC1 [compound 124] for me?
Outgoing: 100

Incoming: Try this compound next: Cc1nc(C2CCN(C(=O)Cn3nc(C(F)(F)F)cc3C)CC2)sc1C(=O)N(C)[C@@H]1CCCc2ccccc21 [compound 227]
Outgoing: 63

Incoming: Try the compound Cc1cccc(CC(=O)N2CCC(c3nc(C(=O)N(C)Cc4ccncc4)cs3)CC2)c1 [compound 170]
Outgoing: 29

Incoming: Check COc1ccccc1CC(=O)N1CCN(c2nc(C(=O)N(C)[C@H](C)c3ccccc3)co2)CC1 [compound 53] too.
Outgoing: 100

Incoming: Do the same for C[C@H](c1ccccc1)N(C)C(=O)c1csc(C2CCN(C(=O)Cn3cnc(C(C)(C)C)c3)CC2)n1 [compound 141] please
Outgoing: 0

Incoming: What do you have for Cc1ccc(C)c(CC(=O)N2CCC(c3nc(C(=O)N(C)[C@H](C)c4ncc(Cl)cc4Cl)cs3)CC2)c1 [compound 111] ?
Outgoing: 99

---

# Test C disease rating (100 = 100% disease control, 0 = no disease control) per entry
# System: Phytophthora infestans
# Experimental protocol: whole plant or invertebrate
# Format: in vivo
# Protocol conditions: tomato late blight; spray the day before inoculation; compounds without asterisk (not 40 or 10 ppm)
A complete answer gives the number followed by the unit.

Smiles data	Target entity	Experimental result
C[C@H](c1ccccc1)N(C)C(=O)c1csc(C2CCN(C(=O)Cc3cccc(S(C)(=O)=O)c3)CC2)n1	Phytophthora infestans	0%
Cc1ccc(C)c(CC(=O)N2CCC(c3nc(C(=O)N(C)Cc4ccccc4)cs3)CC2)c1	Phytophthora infestans	97%
C[C@H](c1ccccc1)N(C)C(=O)c1csc(C2CCN(C(=O)Cc3cccc(OC(F)(F)F)c3)CC2)n1	Phytophthora infestans	67%

Incoming: Which measured Test C disease rating (100 = 100% disease control, 0 = no disease control) belongs to C[C@H](c1ccccc1)N(C)C(=O)c1coc(N2CCN(C(=O)Cc3cc(C(F)(F)F)ccc3Cl)CC2)n1 , tested on Phytophthora infestans?
Outgoing: 100%
